Test system: PXR homodimer (NR concentration 270 nM)
Assay: PBM binding z-score (relative to random genomic background probes); higher = stronger binding; sequences stand for … in GC…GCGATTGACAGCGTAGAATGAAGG

- seqText: "GCTGCTAGGTGAACTGATGGTCAGCTAAAGCTCG"
  PBM binding z-score: -0.684
- seqText: "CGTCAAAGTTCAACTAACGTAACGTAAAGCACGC"
  PBM binding z-score: 3.33
- seqText: "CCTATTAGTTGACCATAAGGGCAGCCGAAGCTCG"
  PBM binding z-score: 0.575
- seqText: "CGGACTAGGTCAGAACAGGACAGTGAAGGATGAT"
  PBM binding z-score: 0.281
- seqText: "CCTACTGGGGCAAGGTCATTGATCAGTCAAAGCA"
  PBM binding z-score: 1.04
- seqText: "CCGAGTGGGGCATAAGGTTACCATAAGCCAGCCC"
  PBM binding z-score: -0.243
- seqText: "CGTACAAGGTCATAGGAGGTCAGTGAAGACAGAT"
  PBM binding z-score: 3.5
- seqText: "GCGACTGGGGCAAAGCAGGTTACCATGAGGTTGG"
  PBM binding z-score: -0.61
- seqText: "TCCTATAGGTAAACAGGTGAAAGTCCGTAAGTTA"
  PBM binding z-score: 0.0288
- seqText: "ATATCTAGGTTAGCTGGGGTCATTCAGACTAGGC"
  PBM binding z-score: 4.27
- seqText: "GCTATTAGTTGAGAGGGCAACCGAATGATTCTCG"
  PBM binding z-score: -0.0553
- seqText: "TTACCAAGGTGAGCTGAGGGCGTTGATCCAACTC"
  PBM binding z-score: -0.168
- seqText: "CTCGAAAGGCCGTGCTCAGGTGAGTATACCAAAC"
  PBM binding z-score: -0.631
- seqText: "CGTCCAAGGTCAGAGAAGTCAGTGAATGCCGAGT"
  PBM binding z-score: 0.728
- seqText: "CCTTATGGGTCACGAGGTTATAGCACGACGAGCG"
  PBM binding z-score: 0.436
- seqText: "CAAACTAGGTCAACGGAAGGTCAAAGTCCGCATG"
  PBM binding z-score: 2.3
- seqText: "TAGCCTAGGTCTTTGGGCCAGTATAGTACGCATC"
  PBM binding z-score: -0.961
- seqText: "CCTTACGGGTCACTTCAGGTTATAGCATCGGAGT"
  PBM binding z-score: 0.776
- seqText: "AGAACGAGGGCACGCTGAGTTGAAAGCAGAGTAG"
  PBM binding z-score: -0.00968
- seqText: "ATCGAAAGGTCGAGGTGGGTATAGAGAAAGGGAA"
  PBM binding z-score: 0.988
- seqText: "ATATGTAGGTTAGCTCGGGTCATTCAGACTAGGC"
  PBM binding z-score: 1.22
- seqText: "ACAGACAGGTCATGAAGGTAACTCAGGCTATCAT"
  PBM binding z-score: 0.934
- seqText: "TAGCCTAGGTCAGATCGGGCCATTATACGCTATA"
  PBM binding z-score: -0.448
- seqText: "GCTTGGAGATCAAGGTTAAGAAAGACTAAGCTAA"
  PBM binding z-score: -0.313
- seqText: "CCTACTGGGCCACGAAAGGTCATTGATTCAGTGA"
  PBM binding z-score: 2.06
- seqText: "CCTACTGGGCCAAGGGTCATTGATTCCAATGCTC"
  PBM binding z-score: -0.275
